Field: pKd. Provide a value for each of the binders that follow.
target_entity: P.1 Spike (SARS-CoV2)
Answers are plain numbers, as −log10 of the molar value.

[
  {
    "binder": "Ab_20 scFv-Fc (scFv, V domains shown) VH: QVQLVQSGGGSVKPGGSLRLSCAASGYRLSDYYMHWVRQAPGKGLEWVANIKQDGSEKYYVDSVKGRFTISRDNAKNSLYLQMNSLRAEDTAVYYCARVRGWSRGYFDYWGQGTLVTVSS VL: NFMLTQPHSVSESPGKTVTISCTGSSGSIASNYVQWYQQRPGSAPTTVIYEDNQRPSGVPDRFSGSIDSSSNSASLLISGLKTEDEADYYCQSYDSSNHWVFGGGTKLTVL",
    "pKd": 10.95
  }
]

// each listed binder needs a value for pKd
1. S1-R3-T1-C4 (Ab_8) scFv-Fc (scFv, V domains shown) VH: QVQLVQSGAEVKKPGSSVKVSCKASGGTFSSYAISWLRQAPGQGLEWMGWINPNSGGTNYAQKFQGRVTMTRDTSISTAYMELSRLRSDDTAVYYCARGSGGYYLGWGQGTLVTVSS VL: QPGLTQPPSVSKGLRQTATLTCTGNSNNVGNQGAAWLQQHQGHPPKLLSYMNNNRPPGISERFSASRSGNTASLTITGLQPEDEADYYCSAWDSSLSRWVFGGGTKLSVL
2. Ab_28 scFv-Fc (scFv, V domains shown) VH: QVTLKESGPGLVNPSETLSLTCTVSGASISNSFWSWIRQSPGKGLEWIGYTSYSGNSIYNPSLKSRLTMSIDTSKNQLSLNLRSLTAADTAVYYCARREWIKGHFDYWGQGTLVTVSS VL: NFMLTQPHSVSESPGKTVTISCTGSGGSIASNYVQWYQQRPGSAPTTVIYEDNQRPSGVPDRFSGSIDSSSNSASLTISGLKTEDEADYYCQSYDSSNPVVFGGGTKLTVL

10.97
11.05

Cited source for all entries: patent US20240409617A1
